experiment: In vivo pharmacokinetic analysis; parameters: species or system mouse; conditions: male, C57BL/6, mouse, plasma, iv, 1 mg/kg
READOUT_LABEL: Vd (L/kg)
I only need the number, in L/kg, no unit after it.

Lookup result for "CNC(=O)c1ccc(-c2cnn3ccc(C(=O)N(C)c4ccc(Cl)c(C(=O)OC)c4)cc23)cc1" ; measured Vd: 1.05

====

target: hCav1.2 (Homo sapiens, UniProt Q13936); experiment: Patch clamp Cav1.2 Quattro
Sequence (P54289 957-1103): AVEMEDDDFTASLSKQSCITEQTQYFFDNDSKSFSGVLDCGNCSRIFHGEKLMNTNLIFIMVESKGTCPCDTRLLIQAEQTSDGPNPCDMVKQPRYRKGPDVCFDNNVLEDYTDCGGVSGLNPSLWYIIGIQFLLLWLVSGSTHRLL
Sequence (Q08289 whole entry, further chain): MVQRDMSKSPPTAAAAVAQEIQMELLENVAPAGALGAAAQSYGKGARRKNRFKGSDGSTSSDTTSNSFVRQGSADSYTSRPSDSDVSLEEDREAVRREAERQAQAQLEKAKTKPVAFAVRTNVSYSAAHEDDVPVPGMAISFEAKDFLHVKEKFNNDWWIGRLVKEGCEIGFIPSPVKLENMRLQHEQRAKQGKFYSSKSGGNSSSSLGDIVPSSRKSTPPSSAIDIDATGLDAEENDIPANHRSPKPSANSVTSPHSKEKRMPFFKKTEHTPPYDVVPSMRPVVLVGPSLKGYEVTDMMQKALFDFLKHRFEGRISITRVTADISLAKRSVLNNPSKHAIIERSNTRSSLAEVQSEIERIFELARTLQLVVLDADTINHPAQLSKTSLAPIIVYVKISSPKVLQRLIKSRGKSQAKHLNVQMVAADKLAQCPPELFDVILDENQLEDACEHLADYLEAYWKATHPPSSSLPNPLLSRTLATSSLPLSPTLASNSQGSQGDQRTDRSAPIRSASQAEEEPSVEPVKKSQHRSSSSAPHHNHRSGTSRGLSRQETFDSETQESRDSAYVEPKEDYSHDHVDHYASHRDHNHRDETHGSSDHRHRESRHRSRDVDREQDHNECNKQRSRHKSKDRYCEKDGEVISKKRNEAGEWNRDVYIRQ
Sequence (Q13936 whole entry): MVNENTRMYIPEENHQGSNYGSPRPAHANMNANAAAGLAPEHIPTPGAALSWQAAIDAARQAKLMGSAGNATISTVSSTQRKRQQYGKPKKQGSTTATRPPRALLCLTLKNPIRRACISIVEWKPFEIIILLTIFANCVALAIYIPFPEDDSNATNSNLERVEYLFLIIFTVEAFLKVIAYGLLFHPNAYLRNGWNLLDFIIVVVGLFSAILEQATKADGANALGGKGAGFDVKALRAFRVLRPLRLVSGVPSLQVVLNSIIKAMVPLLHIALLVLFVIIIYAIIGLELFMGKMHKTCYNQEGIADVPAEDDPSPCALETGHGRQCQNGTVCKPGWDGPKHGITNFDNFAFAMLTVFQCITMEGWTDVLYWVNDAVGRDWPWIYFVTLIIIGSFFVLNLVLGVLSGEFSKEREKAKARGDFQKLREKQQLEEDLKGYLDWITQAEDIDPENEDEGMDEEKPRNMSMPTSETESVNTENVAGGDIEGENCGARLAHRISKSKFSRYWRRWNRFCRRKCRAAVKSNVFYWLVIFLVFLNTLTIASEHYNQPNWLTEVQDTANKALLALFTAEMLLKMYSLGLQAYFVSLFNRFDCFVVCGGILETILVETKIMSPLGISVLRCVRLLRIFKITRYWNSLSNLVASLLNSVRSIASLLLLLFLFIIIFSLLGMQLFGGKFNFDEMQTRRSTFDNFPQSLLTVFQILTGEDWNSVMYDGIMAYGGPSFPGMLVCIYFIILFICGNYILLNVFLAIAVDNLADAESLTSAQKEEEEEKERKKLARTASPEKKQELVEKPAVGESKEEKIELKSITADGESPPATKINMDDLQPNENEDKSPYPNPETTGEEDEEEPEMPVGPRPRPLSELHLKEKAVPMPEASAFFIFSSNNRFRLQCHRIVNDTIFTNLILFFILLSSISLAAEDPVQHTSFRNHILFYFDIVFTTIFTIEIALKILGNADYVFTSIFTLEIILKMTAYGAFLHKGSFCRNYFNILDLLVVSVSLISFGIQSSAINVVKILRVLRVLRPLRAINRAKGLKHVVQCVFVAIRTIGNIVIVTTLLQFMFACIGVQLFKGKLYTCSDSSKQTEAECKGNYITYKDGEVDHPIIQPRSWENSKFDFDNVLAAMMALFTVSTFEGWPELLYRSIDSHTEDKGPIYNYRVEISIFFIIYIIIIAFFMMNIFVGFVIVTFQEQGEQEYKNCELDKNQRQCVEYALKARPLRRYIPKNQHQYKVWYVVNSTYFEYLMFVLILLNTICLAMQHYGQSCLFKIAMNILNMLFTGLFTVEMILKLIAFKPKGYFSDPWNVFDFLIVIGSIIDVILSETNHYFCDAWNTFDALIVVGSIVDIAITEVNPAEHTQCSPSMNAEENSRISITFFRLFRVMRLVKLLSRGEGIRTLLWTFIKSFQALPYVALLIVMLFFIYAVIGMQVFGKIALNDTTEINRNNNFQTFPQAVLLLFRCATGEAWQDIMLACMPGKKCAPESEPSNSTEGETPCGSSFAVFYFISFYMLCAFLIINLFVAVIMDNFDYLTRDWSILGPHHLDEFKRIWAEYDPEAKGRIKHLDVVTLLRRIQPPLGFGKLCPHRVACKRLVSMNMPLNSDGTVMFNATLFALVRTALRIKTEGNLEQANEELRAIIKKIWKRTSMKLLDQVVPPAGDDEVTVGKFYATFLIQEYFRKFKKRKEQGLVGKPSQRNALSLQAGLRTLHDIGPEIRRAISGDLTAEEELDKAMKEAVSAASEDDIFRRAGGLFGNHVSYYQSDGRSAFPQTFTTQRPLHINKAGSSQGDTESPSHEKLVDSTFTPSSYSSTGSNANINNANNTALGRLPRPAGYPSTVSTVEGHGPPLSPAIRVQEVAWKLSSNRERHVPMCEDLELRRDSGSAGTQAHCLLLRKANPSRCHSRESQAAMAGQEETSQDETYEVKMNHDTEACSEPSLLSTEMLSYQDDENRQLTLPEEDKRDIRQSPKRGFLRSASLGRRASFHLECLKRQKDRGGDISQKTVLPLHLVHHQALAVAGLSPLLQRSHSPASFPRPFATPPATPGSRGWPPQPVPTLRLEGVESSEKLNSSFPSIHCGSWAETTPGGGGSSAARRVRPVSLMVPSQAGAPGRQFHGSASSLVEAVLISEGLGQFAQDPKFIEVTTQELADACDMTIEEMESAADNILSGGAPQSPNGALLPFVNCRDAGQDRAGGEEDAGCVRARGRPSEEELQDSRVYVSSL
Sequence (P54289 25-956): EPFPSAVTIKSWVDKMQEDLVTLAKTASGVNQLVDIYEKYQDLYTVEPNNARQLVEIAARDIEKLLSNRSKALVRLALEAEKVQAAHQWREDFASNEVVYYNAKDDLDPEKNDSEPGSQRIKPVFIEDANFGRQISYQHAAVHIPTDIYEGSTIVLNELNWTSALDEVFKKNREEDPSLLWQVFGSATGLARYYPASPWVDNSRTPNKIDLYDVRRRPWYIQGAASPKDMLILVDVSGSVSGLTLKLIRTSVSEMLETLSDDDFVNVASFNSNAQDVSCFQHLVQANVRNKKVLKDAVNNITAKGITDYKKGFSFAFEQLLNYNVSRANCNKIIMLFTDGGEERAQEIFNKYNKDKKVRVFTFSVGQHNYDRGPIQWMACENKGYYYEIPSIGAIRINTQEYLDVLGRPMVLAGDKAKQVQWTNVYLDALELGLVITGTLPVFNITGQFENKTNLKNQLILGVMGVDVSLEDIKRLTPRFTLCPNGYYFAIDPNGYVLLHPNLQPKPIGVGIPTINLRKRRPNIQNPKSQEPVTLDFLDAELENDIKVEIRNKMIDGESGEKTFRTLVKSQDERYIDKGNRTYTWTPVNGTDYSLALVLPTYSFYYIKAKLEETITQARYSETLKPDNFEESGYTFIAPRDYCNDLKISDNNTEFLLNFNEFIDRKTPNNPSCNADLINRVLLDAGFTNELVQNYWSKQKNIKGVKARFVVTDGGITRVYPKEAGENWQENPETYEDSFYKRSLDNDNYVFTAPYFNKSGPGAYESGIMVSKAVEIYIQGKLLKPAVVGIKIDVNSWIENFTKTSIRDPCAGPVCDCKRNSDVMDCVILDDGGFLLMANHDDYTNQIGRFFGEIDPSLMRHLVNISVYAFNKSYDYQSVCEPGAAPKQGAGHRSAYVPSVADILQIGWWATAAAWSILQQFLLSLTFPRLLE
pIC50: −log10 of the molar value.
READOUT_LABEL: pIC50

Field pIC50 (system: hCav1.2 (Homo sapiens, UniProt Q13936)) for entry "CNC(=O)c1ccc(-c2cnn3ccc(C(=O)N(C)c4ccc(Cl)c(C(=O)OC)c4)cc23)cc1" = < 4.30

====

test system: P-glycoprotein (MDR1); experiment: MDCK MDR1 permeability and efflux; format: in vitro ADME; details: dog, MDCK-MDR1
READOUT_LABEL: Papp B→A (×10⁻⁶ cm/s)
Hi! Could you send only the number? It should be in ×10⁻⁶ cm/s, unit omitted.

Consider the following illustrative entries.
compound="CNC(=O)c1ccc(-c2cnn3ccc(C(=O)N(CC(=O)O)c4ccc(Cl)cc4)cc23)cc1 [Compound 2]" endpoint_value=1.65
compound="CCOC(=O)CN(C(=O)c1ccn2ncc(-c3ccc(C(=O)NC)cc3)c2c1)c1ccc(Cl)cc1 [Compound 1]" endpoint_value=7.4
compound="CN(C(=O)c1ccn2ncc(-c3ccc(C(N)=O)cc3)c2c1)c1ccc(C#N)cn1 [KDU731, reference compound]" endpoint_value=15.5

Moving on to another compound below.
Entry COC(=O)c1cc(Cl)ccc1N(C)C(=O)c1ccn2ncc(-c3ccc(C(N)=O)cc3)c2c1 [Compound 5] ; Papp B→A = 15.7

====

Reported half-life by item:
assay: Hepatocytes metabolic stability; type: in vitro ADME; details: human, hepatocytes
Your answer should be a plain number; it is taken to be in min.

compound="CN(C(=O)c1ccn2ncc(-c3ccc(C(N)=O)cc3)c2c1)c1ccc(C#N)cn1 [KDU731, reference compound]" endpoint_value=57.9

Now look at this entry.
Record "CNC(=O)c1ccc(-c2cnn3ccc(C(=O)N(C[C@H]4CCC(=O)O4)c4ccc(OC(F)(F)F)cc4)cc23)cc1" , field half-life: 4.8

====

assay: In vivo pharmacokinetic analysis; parameters: species or system mouse; conditions: male, C57BL/6, mouse, plasma, iv, 1 mg/kg
READOUT_LABEL: clearance (mL/min/kg)
Respond with the bare value in mL/min/kg.

clearance measured on "CNC(=O)c1ccc(-c2cnn3ccc(C(=O)N(C)c4ccc(Cl)c(C(=O)OC)c4)cc23)cc1" = 66.7

====

experiment: In vivo pharmacokinetic analysis; parameters: species or system mouse; settings: male, C57BL/6, mouse, plasma, po, 10 mg/kg
READOUT_LABEL: bioavailability (%)
Give your result in % as a bare value.

The reported bioavailability of the compound "CNC(=O)c1ccc(-c2cnn3ccc(C(=O)N(C)c4ccc(Cl)c(C(=O)OC)c4)cc23)cc1" was 0.4

====

assay: Neonatal calf pharmacokinetics; type: in vivo; details: bovine, plasma, po, 10 mg/kg, uninfected healthy calves
READOUT_LABEL: Tmax (h)
Express the result in h but write the number alone.

# compound CNC(=O)c1ccc(-c2cnn3ccc(C(=O)N(C)c4ccc(Cl)c(C(=O)OC)c4)cc23)cc1 [EDI048] ; its Tmax = 2

The origin of these recorded values is paper PMC11522000.
